experiment: Ratio of drug level from brain to plasma in Han Wistar rat at 2 mg/kg, po; format: ADME, organism-based; set-up: dose 2 mg/kg, route oral; conditions: read-out: BPR
Outcome measure: Kp

In [3]: df
Out[3]:
                               smiles_input  reported_result
0  O=C(NCCCCN1CCCCC1)Nc1ccc(-c2ccc(F)cc2)nc1              0.3

* * *

assay: Selectivity ratio of EC50 for human alpha1 nAChR to EC50 for rat alpha7 nAChR
Outcome measure: Ratio EC50

>>> print(df.to_string())
                                smiles_input  outcome_measure  reported_result
 0    O=C(NCCCCN1CCCCC1)Nc1ccc(-c2ccccc2)nc1       Ratio EC50             > 30
 1    O=C(NCCCCN1CCCCC1)Nc1ccc(-c2ccccc2)cc1       Ratio EC50             > 30
 2    O=C(NCCCCN1CCCCC1)Nc1ccc(-c2ccccn2)cc1       Ratio EC50             > 30
 3  COc1ccccc1-c1ccc(NC(=O)NCCCCN2CCCCC2)cc1       Ratio EC50              7.7
 4  O=C(NCCCCN1CCCCC1)Nc1ccc(-c2ccc(F)cc2)cc1       Ratio EC50                8
 5   O=C(NCCCCN1CCCCC1)Nc1ccc(-c2ccccc2F)nc1       Ratio EC50             > 30
 6  O=C(NCCCCN1CCCCC1)Nc1ccc(-c2ccc(F)nc2)nc1       Ratio EC50             > 30
 7  COc1ccccc1-c1ccc(NC(=O)NCCCCN2CCCCC2)cn1       Ratio EC50             > 30
 8  O=C(NCCCCN1CCCCC1)Nc1ccc(-c2ccc(F)nc2)cc1       Ratio EC50             > 30
 9    O=C(NCCCCN1CCCCC1)Nc1ccc(-c2ccccn2)nc1       Ratio EC50             > 30
10   O=C(NCCCCN1CCCCC1)Nc1ccc(-c2ccccc2F)cc1       Ratio EC50              8.2

Source of measurements: ChEMBL document CHEMBL1155527
